biological target: 5-hydroxytryptamine receptor 7 (Homo sapiens) (UniProt P34969); conditions: Compound concentration 10 µM
Sequence (P34969 whole entry): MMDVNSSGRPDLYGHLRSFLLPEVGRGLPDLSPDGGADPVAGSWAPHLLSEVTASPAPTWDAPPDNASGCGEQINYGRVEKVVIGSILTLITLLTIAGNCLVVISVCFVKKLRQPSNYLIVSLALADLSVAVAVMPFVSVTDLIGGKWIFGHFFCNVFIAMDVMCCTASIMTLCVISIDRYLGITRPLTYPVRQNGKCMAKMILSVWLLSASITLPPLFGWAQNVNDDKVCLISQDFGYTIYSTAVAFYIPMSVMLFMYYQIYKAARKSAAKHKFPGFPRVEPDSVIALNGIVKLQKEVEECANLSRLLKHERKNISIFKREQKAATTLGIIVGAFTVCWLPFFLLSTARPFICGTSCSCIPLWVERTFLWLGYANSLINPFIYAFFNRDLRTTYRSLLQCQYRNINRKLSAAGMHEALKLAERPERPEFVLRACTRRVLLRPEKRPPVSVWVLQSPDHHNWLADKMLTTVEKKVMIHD
readout: inhibition (%)
Write it as a number; the unit % goes unstated.

[
  {
    "molecule": "CCCCc1nc(Cl)c(CO)n1Cc1ccc(-c2ccccc2-c2nnn[nH]2)cc1",
    "inhibition (%)": 40
  },
  {
    "molecule": "OC[C@H]1O[C@@H](n2cnc3c(NC4CCCC4)ncnc32)[C@H](O)[C@@H]1O",
    "inhibition (%)": 16.1
  },
  {
    "molecule": "COc1cc2nc(N3CCN(C(=O)c4ccco4)CC3)nc(N)c2cc1OC",
    "inhibition (%)": 23.8
  },
  {
    "molecule": "CCCn1c(=O)c2nc(C34CC5CC(CC3C5)C4)[nH]c2n(CCC)c1=O",
    "inhibition (%)": 5.98
  },
  {
    "molecule": "OC1(c2ccc(Cl)cc2)CCN(Cc2c[nH]c3ccccc23)CC1",
    "inhibition (%)": 10.4
  }
]

Value wanted: inhibition (5-hydroxytryptamine receptor 7 (Homo sapiens) (UniProt P34969)) of entry `Cc1cc(C)cc(-c2cnc3cc(Cl)c(-c4cccc(O)c4)cc3c2OCCCN)c1`
54.9

Value wanted: inhibition (5-hydroxytryptamine receptor 7 (Homo sapiens) (UniProt P34969)) of entry `Clc1cccc(Cl)c1NC1=NCCN1`
77.2

Value wanted: inhibition (5-hydroxytryptamine receptor 7 (Homo sapiens) (UniProt P34969)) of entry `CCCCCCCCCCCCCCCCOC[C@H](COP(=O)([O-])OCC[N+](C)(C)C)OC(C)=O`
-1.59

Value wanted: inhibition (5-hydroxytryptamine receptor 7 (Homo sapiens) (UniProt P34969)) of entry O=C(c1cc2c(cc1F)OC(c1ccc(F)cc1)(c1ccc(Cl)cc1Cl)O2)N1CCOCC1 (stereo not given)
5.01

Value wanted: inhibition (5-hydroxytryptamine receptor 7 (Homo sapiens) (UniProt P34969)) of entry `CNc1nc(NCc2ccc(NS(C)(=O)=O)cc2Cl)cc(-c2ccccn2)n1`
77.9

* * *

target: Kappa-type opioid receptor (Homo sapiens) (UniProt P41145); conditions: Compound concentration 10 µM
Sequence (P41145 whole entry): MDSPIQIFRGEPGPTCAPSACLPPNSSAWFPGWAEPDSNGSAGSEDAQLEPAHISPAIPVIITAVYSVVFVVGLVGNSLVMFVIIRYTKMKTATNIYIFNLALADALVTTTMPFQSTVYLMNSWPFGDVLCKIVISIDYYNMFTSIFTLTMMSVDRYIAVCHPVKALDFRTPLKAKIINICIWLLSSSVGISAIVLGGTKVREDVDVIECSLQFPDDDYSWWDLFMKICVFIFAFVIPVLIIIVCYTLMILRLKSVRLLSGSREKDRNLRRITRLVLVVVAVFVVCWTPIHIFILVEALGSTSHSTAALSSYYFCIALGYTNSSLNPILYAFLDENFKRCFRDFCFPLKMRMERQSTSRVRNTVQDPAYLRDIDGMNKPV
readout: inhibition (%)
Write it as a number; the unit % goes unstated.

Some solved cases for reference:
[
  {
    "compound": "CSc1ccc(C(=O)N[C@@H]2CCCC[C@@H]2NC(=O)CNC(=O)c2cc(C(F)(F)F)ccc2NC(=O)NC(C)C)cc1",
    "value_unit": "%",
    "reported_value": 15.3
  },
  {
    "compound": "C[C@@H](NCCCc1cccc(C(F)(F)F)c1)c1cccc2ccccc12",
    "value_unit": "%",
    "reported_value": 79.3
  },
  {
    "compound": "CC[C@@H]1CN2C(=O)N(C)c3nc(-c4ccccc4)[nH]c3C2=N1",
    "value_unit": "%",
    "reported_value": 6.33
  },
  {
    "compound": "CC(C)(C)NC[C@H](O)COc1nsnc1N1CCOCC1",
    "value_unit": "%",
    "reported_value": 3.37
  },
  {
    "compound": "CCCn1c(=O)c2nc(C34CC5CC(CC3C5)C4)[nH]c2n(CCC)c1=O",
    "value_unit": "%",
    "reported_value": 4.62
  },
  {
    "compound": "COc1cc2c(CCNC(C)=O)c[nH]c2cc1Cl",
    "value_unit": "%",
    "reported_value": -6.29
  },
  {
    "compound": "N#Cc1c(O)nc(SCc2cccc(F)c2F)nc1C1CC1",
    "value_unit": "%",
    "reported_value": 3.53
  },
  {
    "compound": "COc1ccc(/C=C/CCCCOc2ccc(C(=O)c3cccc(C(=O)O)c3)cc2CCC(=O)O)cc1",
    "value_unit": "%",
    "reported_value": 10.7
  },
  {
    "compound": "CS(=O)(=O)NC[C@H]1CC[C@H](Nc2nc3c(s2)CCSc2ccccc2-3)CC1",
    "value_unit": "%",
    "reported_value": -0.03
  },
  {
    "compound": "CCOC(=O)c1cc(C#N)c(N2CCC(C(=O)NS(=O)(=O)Cc3ccccc3)CC2)nc1C",
    "value_unit": "%",
    "reported_value": 3.74
  }
]

Query (compound): `COc1cccc(-c2c(C)n(Cc3c(F)cccc3C(F)(F)F)c(=O)n(C[C@H](NCCCC(=O)O)c3ccccc3)c2=O)c1F` ; field requested: inhibition
52.1

Query (compound): `CC(C)NC(=O)c1ccc(C#Cc2ccncc2)cn1` ; field requested: inhibition
-1.6

Query (compound): `O=C(O)c1n[nH]c2c1C[C@H]1C[C@@H]21` ; field requested: inhibition
-6.22

Query (compound): `Cc1csc2c(N[C@@H](C)CN3CCN(S(=O)(=O)c4ccc(Cl)c(Cl)c4)CC3)ncnc12` ; field requested: inhibition
85.4

Query (compound): `Cc1ccc(O)c([C@H](CCN(C(C)C)C(C)C)c2ccccc2)c1` ; field requested: inhibition
31

Query (compound): Cc1c(OCc2cccc(-c3ccc(C(=O)O)cc3)c2)cc2c(c1C)C(=O)C(C1CCCC1)C2 (stereo not drawn) ; field requested: inhibition
-0.11

* * *

target: D(1B) dopamine receptor (Homo sapiens); details: Compound concentration 10 µM
readout: inhibition (%)
Write it as a number; the unit % goes unstated.

Some solved cases for reference:
[
  {
    "molecule": "N#Cc1cccc(C(=O)Nc2cc(-c3ccccc3)nn2-c2ccccc2)c1",
    "inhibition / %": 0.95
  },
  {
    "molecule": "O=C(O)C1CN(Cc2ccc(-c3nc4cc(Cc5ccccc5F)ccc4s3)c(F)c2)C1",
    "inhibition / %": -0.27
  },
  {
    "molecule": "CN1CC(=O)N=C1NC(=O)Nc1cccc(Cl)c1",
    "inhibition / %": 18.3
  },
  {
    "molecule": "OCc1cc(C(O)CNCCCCCCOCCCCc2ccccc2)ccc1O (stereo not given)",
    "inhibition / %": 19.6
  }
]

Please look at the following molecule next.
Value wanted: inhibition (D(1B) dopamine receptor (Homo sapiens)) of entry `O=c1ccn([C@@H]2O[C@H](COP(=O)(O)OP(=O)(O)OP(=O)(O)O)[C@@H](O)[C@H]2O)c(=O)[nH]1`
20.2

* * *

Recorded inhibition by entry
molecular target: Histamine H4 receptor (Homo sapiens); details: Compound concentration 10 µM
Write it as a number; the unit % goes unstated.

[
  {
    "compound": "Cc1ccccc1C(=O)Nc1ccc(C(=O)N2CCCC(O)c3cc(Cl)ccc32)c(C)c1 (stereo not given)",
    "value_unit": "%",
    "inhibition": 3.66
  },
  {
    "compound": "Cc1cn2cc(CC(=O)N3CCC4(CC3)CN(Cc3ccc(-n5nccn5)cc3Cl)C4)nc2s1",
    "value_unit": "%",
    "inhibition": -5.48
  },
  {
    "compound": "C[C@@H](NCCCc1cccc(C(F)(F)F)c1)c1cccc2ccccc12",
    "value_unit": "%",
    "inhibition": 14
  },
  {
    "compound": "NCCc1cn(S(=O)(=O)c2c(Cl)nc3sccn23)c2ccccc12",
    "value_unit": "%",
    "inhibition": 11.2
  }
]

Please look at the following compound next.
Query (compound): `C[N+]1(C)[C@@H]2C[C@@H](OC(=O)C(O)(c3cccs3)c3cccs3)C[C@H]1[C@@H]1O[C@@H]12` ; field requested: inhibition
-8.1

* * *

Recorded inhibition by entry
biological target: D(2) dopamine receptor (Homo sapiens); settings: Compound concentration 10 µM
Write it as a number; the unit % goes unstated.

Some solved cases for reference:
[
  {
    "compound": "O=c1ccn([C@@H]2O[C@H](COP(=O)(O)OP(=O)(O)O)[C@@H](O)[C@H]2O)c(=O)[nH]1",
    "inhibition, %": 14.8
  },
  {
    "compound": "CC(C)NCC(O)COc1ccc(CCOCC2CC2)cc1 (stereo not given)",
    "inhibition, %": 3.26
  },
  {
    "compound": "Cc1c(F)cccc1NC(=O)Nc1ccc(Cl)c(S(=O)(=O)[C@H]2CCCNC2)c1O",
    "inhibition, %": 11.7
  },
  {
    "compound": "Cc1csc2c(N[C@@H](C)CN3CCN(S(=O)(=O)c4ccc(Cl)c(Cl)c4)CC3)ncnc12",
    "inhibition, %": 32.8
  },
  {
    "compound": "c1nc(CC2CCNCC2)c[nH]1",
    "inhibition, %": 27.8
  }
]

Please look at the following compound next.
Query (compound): `Cc1nc(C(=O)N2CCC[C@H]2Cc2nnc(-c3ccccc3)o2)c(-c2ccccc2F)s1` ; field requested: inhibition
14.6

* * *

molecular target: Histamine H4 receptor (Homo sapiens) (UniProt Q9H3N8); settings: Compound concentration 10 µM
Sequence (Q9H3N8 whole entry): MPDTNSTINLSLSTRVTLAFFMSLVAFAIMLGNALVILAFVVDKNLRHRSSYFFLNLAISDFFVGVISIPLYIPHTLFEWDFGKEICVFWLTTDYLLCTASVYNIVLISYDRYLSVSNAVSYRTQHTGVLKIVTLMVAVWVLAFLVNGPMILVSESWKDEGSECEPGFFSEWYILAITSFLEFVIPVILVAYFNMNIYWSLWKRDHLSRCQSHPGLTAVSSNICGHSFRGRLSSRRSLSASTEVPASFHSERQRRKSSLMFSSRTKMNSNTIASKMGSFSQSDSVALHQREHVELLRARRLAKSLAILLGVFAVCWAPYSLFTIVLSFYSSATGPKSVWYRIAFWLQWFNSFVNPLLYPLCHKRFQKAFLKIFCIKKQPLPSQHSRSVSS
Recorded inhibition by entry

[
  {
    "compound": "N#Cc1ccc(NC(=O)Nc2ccccc2Br)c2nn[nH]c12",
    "inhibition": "25.3%"
  }
]

Please look at the following compound next.
Query (compound): `CC(C)(C)NC[C@H](O)COc1nsnc1N1CCOCC1` ; field requested: inhibition
3.02%
